- method-notes: Biodistribution of 177Lu-labeled αMSH analogues in mice bearing SK-MEL-1 human melanoma
- experimental-parameters: male, NRG (NOD.Cg-Rag1tm1Mom Il2rgtm1Wjl/SzJ), mouse, urine, total radioactivity
measured-property: excreta dose per gram or mL at 1 h (%ID/g)
Numeric answer only, unit %ID/g assumed.

compound	test-value
CCCC[C@H](NC(=O)CN1CCC(NC(=O)[C@H](CCCCNC(=O)CN2CCN(CC(=O)O)CCN(CC(=O)O)CCN(CC(=O)O)CC2)NC(=O)[C@H](CCC(=O)O)NC(=O)CCCc2ccc(I)cc2)CC1)C(=O)N[C@H]1CC(=O)NCCCC[C@@H](C(N)=O)N(C)C(=O)[C@H](Cc2c[nH]c3ccccc23)NC(=O)[C@H](CCCNC(=N)N)N(C)C(=O)[C@@H](Cc2ccccc2)NC(=O)[C@H](Cc2c[nH]cn2)NC1=O [^177Lu-labeled CCZ01118, metal not drawn]	376
CCCC[C@H](NC(=O)CN1CCC(NC(=O)[C@H](CCCCNC(=O)CN2CCN(CC(=O)O)CCN(CC(=O)O)CCN(CC(=O)O)CC2)NC(=O)CNC(=O)CCCc2ccc(I)cc2)CC1)C(=O)N[C@H]1CC(=O)NCCCC[C@@H](C(N)=O)N(C)C(=O)[C@H](Cc2c[nH]c3ccccc23)NC(=O)[C@H](CCCNC(=N)N)N(C)C(=O)[C@@H](Cc2ccccc2)NC(=O)[C@H](Cc2c[nH]cn2)NC1=O [^177Lu-labeled CCZ01148, metal not drawn]	51

Attention now shifts to the item below.
(Q) Name the reported excreta dose per gram or mL at 1 h value associated with the compound CCCC[C@H](NC(=O)CN1CCC(NC(=O)[C@H](CCCCNC(=O)CN2CCN(CC(=O)O)CCN(CC(=O)O)CCN(CC(=O)O)CC2)NC(=O)CNC(=O)CCCc2ccc(-c3ccc(C)cc3)cc2)CC1)C(=O)N[C@H]1CC(=O)NCCCC[C@@H](C(N)=O)N(C)C(=O)[C@H](Cc2c[nH]c3ccccc23)NC(=O)[C@H](CCCNC(=N)N)N(C)C(=O)[C@@H](Cc2ccccc2)NC(=O)[C@H](Cc2c[nH]cn2)NC1=O [^177Lu-labeled CCZ01158, metal not drawn]
(A) 214

* * *

- method-notes: Biodistribution of 177Lu-labeled αMSH analogues in mice bearing SK-MEL-1 human melanoma
- experimental-parameters: male, NRG (NOD.Cg-Rag1tm1Mom Il2rgtm1Wjl/SzJ), mouse, blood, total radioactivity
tissue uptake at 1 h values, listed per item
A number alone suffices; assume %ID/g.

Some entries whose results are on file:
molecule	tissue uptake at 1 h (%ID/g)
CCCC[C@H](NC(=O)CN1CCC(NC(=O)[C@H](CCCCNC(=O)CN2CCN(CC(=O)O)CCN(CC(=O)O)CCN(CC(=O)O)CC2)NC(=O)CNC(=O)CCCc2ccc(-c3ccc(C)cc3)cc2)CC1)C(=O)N[C@H]1CC(=O)NCCCC[C@@H](C(N)=O)N(C)C(=O)[C@H](Cc2c[nH]c3ccccc23)NC(=O)[C@H](CCCNC(=N)N)N(C)C(=O)[C@@H](Cc2ccccc2)NC(=O)[C@H](Cc2c[nH]cn2)NC1=O [^177Lu-labeled CCZ01158, metal not drawn]	19.1
CCCC[C@H](NC(=O)CN1CCC(NC(=O)[C@H](CCCCNC(=O)CN2CCN(CC(=O)O)CCN(CC(=O)O)CCN(CC(=O)O)CC2)NC(=O)[C@H](CCC(=O)O)NC(=O)CCCc2ccc(I)cc2)CC1)C(=O)N[C@H]1CC(=O)NCCCC[C@@H](C(N)=O)N(C)C(=O)[C@H](Cc2c[nH]c3ccccc23)NC(=O)[C@H](CCCNC(=N)N)N(C)C(=O)[C@@H](Cc2ccccc2)NC(=O)[C@H](Cc2c[nH]cn2)NC1=O [^177Lu-labeled CCZ01118, metal not drawn]	9.63

(Q) So what's the measured tissue uptake at 1 h for this one? CCCC[C@H](NC(=O)CN1CCC(NC(=O)[C@H](CCCCNC(=O)CN2CCN(CC(=O)O)CCN(CC(=O)O)CCN(CC(=O)O)CC2)NC(=O)CNC(=O)CCCc2ccc(I)cc2)CC1)C(=O)N[C@H]1CC(=O)NCCCC[C@@H](C(N)=O)N(C)C(=O)[C@H](Cc2c[nH]c3ccccc23)NC(=O)[C@H](CCCNC(=N)N)N(C)C(=O)[C@@H](Cc2ccccc2)NC(=O)[C@H](Cc2c[nH]cn2)NC1=O [^177Lu-labeled CCZ01148, metal not drawn]
(A) 32

Where these numbers come from: patent US11395857B2
